target: Epidermal growth factor receptor (Homo sapiens, UniProt P00533, L858R/T790M); assay: Inhibition of EGFR T790M/L858R double mutant (unknown origin) using Tyr 4 peptide as substrate after 1.5 hrs by FRET-based Z'-LYTE assay
Sequence (P00533 25-1210 T790M/L858R limits assumed): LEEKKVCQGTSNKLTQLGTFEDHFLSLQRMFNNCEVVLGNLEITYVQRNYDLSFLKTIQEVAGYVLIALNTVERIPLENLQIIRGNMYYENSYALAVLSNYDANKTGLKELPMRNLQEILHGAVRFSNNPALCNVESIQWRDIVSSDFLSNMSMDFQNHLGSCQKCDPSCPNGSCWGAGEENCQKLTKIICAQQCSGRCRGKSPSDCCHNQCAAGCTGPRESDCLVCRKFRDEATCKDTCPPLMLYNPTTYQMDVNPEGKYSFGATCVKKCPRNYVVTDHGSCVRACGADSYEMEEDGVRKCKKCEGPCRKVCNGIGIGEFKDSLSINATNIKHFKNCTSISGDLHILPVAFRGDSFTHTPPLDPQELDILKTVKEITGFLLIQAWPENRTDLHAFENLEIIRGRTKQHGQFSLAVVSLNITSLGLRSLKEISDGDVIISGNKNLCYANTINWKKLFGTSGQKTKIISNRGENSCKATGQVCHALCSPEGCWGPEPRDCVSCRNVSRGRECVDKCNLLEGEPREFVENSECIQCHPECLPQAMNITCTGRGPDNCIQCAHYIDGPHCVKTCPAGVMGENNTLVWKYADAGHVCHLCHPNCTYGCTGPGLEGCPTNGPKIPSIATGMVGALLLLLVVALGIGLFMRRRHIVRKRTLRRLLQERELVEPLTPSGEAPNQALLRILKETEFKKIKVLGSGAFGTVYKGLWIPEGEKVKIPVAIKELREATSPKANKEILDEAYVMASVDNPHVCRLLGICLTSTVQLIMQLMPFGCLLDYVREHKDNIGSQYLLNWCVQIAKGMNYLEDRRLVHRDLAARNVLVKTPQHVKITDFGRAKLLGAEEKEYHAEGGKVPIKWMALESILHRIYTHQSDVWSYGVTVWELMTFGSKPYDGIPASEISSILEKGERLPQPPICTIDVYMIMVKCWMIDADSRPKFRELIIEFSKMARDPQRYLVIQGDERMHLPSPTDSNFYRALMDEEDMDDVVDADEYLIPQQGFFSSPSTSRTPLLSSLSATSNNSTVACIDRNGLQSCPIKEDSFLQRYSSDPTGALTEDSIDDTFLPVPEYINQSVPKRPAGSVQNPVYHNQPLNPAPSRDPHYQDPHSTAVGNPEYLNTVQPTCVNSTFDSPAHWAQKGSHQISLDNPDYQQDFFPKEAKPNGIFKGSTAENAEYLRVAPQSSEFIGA
quantity-measured: IC50 (nM)

[[record]]
molecule_smiles = "C=CC(=O)Nc1cccc(-n2c(=O)cnc3cnc(Nc4ccc(C(N)=O)cc4)nc32)c1"
obs_value = 3.97


A: C=CC(=O)Nc1cccc(-n2c(=O)cnc3cnc(Nc4ccc(N5CCCCC5)cc4)nc32)c1
B: COc1ccc(Nc2ncc3ncc(=O)n(-c4cccc(NC(=O)/C=C/CN(C)C)c4)c3n2)cc1
C: C=CC(=O)Nc1ccc(-n2c(=O)cnc3cnc(Nc4ccc(N5CCN(C)CC5)cc4OC)nc32)cc1
Rank the 3 molecules: largest IC50 first, smallest last. Respond with an ordered listing of the labels, as requested. B, C, A
